Listing of entries alongside the reported Cardiomyocyte (CM) (ErbB4) Avg EC50.
experimental system: ErbB4 on neonatal rat cardiomyocytes (rat) (UniProt Q62956)
Sequence (Q62956 26-1308): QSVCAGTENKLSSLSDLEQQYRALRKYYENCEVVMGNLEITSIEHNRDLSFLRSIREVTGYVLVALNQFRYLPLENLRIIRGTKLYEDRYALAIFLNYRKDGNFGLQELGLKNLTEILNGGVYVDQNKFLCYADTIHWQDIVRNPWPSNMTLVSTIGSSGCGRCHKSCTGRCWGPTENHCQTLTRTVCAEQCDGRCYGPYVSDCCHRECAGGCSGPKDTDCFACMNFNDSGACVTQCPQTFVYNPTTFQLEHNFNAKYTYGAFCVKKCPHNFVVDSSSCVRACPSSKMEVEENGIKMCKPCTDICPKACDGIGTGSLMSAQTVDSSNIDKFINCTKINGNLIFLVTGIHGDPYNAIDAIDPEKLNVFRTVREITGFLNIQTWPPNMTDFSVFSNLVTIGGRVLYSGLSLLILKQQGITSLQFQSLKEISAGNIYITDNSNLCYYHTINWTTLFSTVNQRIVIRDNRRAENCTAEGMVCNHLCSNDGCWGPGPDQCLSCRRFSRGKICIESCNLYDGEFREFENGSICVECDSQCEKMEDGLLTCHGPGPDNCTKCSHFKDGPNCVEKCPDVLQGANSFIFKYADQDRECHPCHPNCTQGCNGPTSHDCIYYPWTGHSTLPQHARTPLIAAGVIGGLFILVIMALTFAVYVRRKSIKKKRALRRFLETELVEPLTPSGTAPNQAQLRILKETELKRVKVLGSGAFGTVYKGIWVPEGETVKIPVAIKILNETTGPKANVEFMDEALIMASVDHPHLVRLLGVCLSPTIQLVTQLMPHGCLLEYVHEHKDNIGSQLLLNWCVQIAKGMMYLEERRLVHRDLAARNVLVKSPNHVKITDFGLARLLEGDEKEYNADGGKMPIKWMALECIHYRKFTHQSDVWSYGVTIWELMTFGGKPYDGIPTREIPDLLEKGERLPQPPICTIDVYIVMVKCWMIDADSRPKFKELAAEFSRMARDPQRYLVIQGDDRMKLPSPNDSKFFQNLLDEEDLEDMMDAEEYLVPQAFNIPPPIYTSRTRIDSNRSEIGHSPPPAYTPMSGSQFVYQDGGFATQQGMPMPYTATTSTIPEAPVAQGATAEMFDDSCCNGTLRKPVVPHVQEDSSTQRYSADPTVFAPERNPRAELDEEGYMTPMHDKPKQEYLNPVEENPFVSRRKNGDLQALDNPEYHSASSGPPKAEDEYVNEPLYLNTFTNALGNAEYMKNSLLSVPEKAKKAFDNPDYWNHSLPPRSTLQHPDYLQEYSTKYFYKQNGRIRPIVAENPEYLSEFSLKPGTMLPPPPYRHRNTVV
test description: cell-based or functional assay
Answer in nM, number only, no unit symbol.

The examples below pair each entry with its known result.
| binder | Cardiomyocyte (CM) (ErbB4) Avg EC50 / nM |
| --- | --- |
| huNRG1(S177-F229)(NRGE1C)::1KmodT482V, M493L)::huFcSEFL2 (Pb) (Fc fusion) SHLVKCGEKHKSFCVNGGECFMIEGPSNPSRYLCKCPNEFTGDRCQEDFMASFGSGSATGGSGSVASSGSGSATHLDKTHTCPPCPAPELLGGPSVFLFPPKPKDTLMISRTPEVTCVVVDVSHEDPEVKFNWYVDGVEVHNAKTKPCEEQYGSTYRCVSVLTVLHQDWLNGKEYKCKVSNKALPAPIEKTISKAKGQPREPQVYTLPPSREEMTKNQVSLTCLVKGFYPSDIAVEWESNGQPENNYKTTPPVLDSDGSFFLYSKLTVDKSRWQQGNVFSCSVMHEALHNHYTQKSLSLSPGK | 0.4 |
| huNRG1(S177-Q237)(v80.3)::GG::huFcSEFL2 (Pb) (Fc fusion) SHLVKCAERHKSFCVNGGECFVIEGSSIPSRYLCKCPNEFTGDRCEKDVMASFYKAEELYQGGDKTHTCPPCPAPELLGGPSVFLFPPKPKDTLMISRTPEVTCVVVDVSHEDPEVKFNWYVDGVEVHNAKTKPCEEQYGSTYRCVSVLTVLHQDWLNGKEYKCKVSNKALPAPIEKTISKAKGQPREPQVYTLPPSREEMTKNQVSLTCLVKGFYPSDIAVEWESNGQPENNYKTTPPVLDSDGSFFLYSKLTVDKSRWQQGNVFSCSVMHEALHNHYTQKSLSLSPGK | 33.6 |
| huNRG1(S177-Q237)(1B9)::GG::huFcSEFL2 (Pb) (Fc fusion) SHLVKCAEKHKSFCVNGGECFMVEDLSIPSRYLCKCPNEFTGDRCQDVFMASFYKAEELYQGGDKTHTCPPCPAPELLGGPSVFLFPPKPKDTLMISRTPEVTCVVVDVSHEDPEVKFNWYVDGVEVHNAKTKPCEEQYGSTYRCVSVLTVLHQDWLNGKEYKCKVSNKALPAPIEKTISKAKGQPREPQVYTLPPSREEMTKNQVSLTCLVKGFYPSDIAVEWESNGQPENNYKTTPPVLDSDGSFFLYSKLTVDKSRWQQGNVFSCSVMHEALHNHYTQKSLSLSPGK | 1.92 |

Consider the additional binder presented here.
May I ask what Cardiomyocyte (CM) (ErbB4) Avg EC50 has been recorded for huNRG1(S177-Q237)(3E6)::GG::huFcSEFL2 (Pb) (Fc fusion) SHLVKCAEKHKSFCVNGGECYVIEGSSIPSRFLCKCPNEFTGDRCQKDFMASFYKAEELYQGGDKTHTCPPCPAPELLGGPSVFLFPPKPKDTLMISRTPEVTCVVVDVSHEDPEVKFNWYVDGVEVHNAKTKPCEEQYGSTYRCVSVLTVLHQDWLNGKEYKCKVSNKALPAPIEKTISKAKGQPREPQVYTLPPSREEMTKNQVSLTCLVKGFYPSDIAVEWESNGQPENNYKTTPPVLDSDGSFFLYSKLTVDKSRWQQGNVFSCSVMHEALHNHYTQKSLSLSPGK ? 0.35
